Source of measurements: PubChem BioAssay (NCI)

Would you mind telling me the reported growth of each entry?
Test system: SN12C renal
assay-notes: NCI-60 one-dose screen, 48 h (100 = growth as untreated, 0 = no growth, -100 = all killed)
experimental-context: 10 µM
About 83,000 compounds went through this panel and 20% of them were active in at least one assay; those are over-represented in the sample as a whole. Activity calls are given as the source filed them. The calls were made as follows: active = growth percent below 10; inactive = the rest.

Q: Find the measured growth of COc1cc(-c2nc3ccc(C)cc3[nH]2)ccc1OCc1nnc(-c2ccc(CC(C)C)cc2)o1 with SN12C renal as test system.
Ans: 92% (inactive)

Q: Find the measured growth of Nc1nc2c(nnn2C2CC(O)C(CO)O2)c(=O)[nH]1 (stereo not given) with SN12C renal as test system.
Ans: 45.3% (inactive)

Q: Find the measured growth of COc1cc(/C=C/C(=O)c2cc(-c3ccc(F)cc3)ccc2O)cc(OC)c1OC with SN12C renal as test system.
Ans: 74.3% (inactive)

Q: Find the measured growth of CC(C)/C=N/NC(N)=S with SN12C renal as test system.
Ans: 85.5% (inactive)

Q: Find the measured growth of FC(F)(F)c1ccc(-c2cnc(Cl)nc2NCc2cc(C(F)(F)F)cc(C(F)(F)F)c2)cc1 with SN12C renal as test system.
Ans: 12.4% (inactive)

Q: Find the measured growth of CCCCCN(CCCCC)C(C)C(O)c1ccc2cc(Cl)c3ccccc3c2c1 (stereo not given) with SN12C renal as test system.
Ans: 89.6% (inactive)

Q: Find the measured growth of CC(C)C[C@H](NC(=O)CCn1ccc2ccccc2c1=O)B(O)O with SN12C renal as test system.
Ans: 63.7% (inactive)

Q: Find the measured growth of O=C(N/N=C/c1ccccc1O)c1ccccc1 with SN12C renal as test system.
Ans: 47.2% (inactive)

Q: Find the measured growth of CC1(CO)CCCC12OCCO2 (stereo not given) with SN12C renal as test system.
Ans: 100% (inactive)

Q: Find the measured growth of COc1cc(-c2cc(-c3ccc(C)cc3)nc3nc(N)[nH]c(=O)c23)ccc1Oc1ccnc2cc(Cl)ccc12 with SN12C renal as test system.
Ans: 74.2% (inactive)

* * *

Test system: NCI-H23 lung
assay-notes: NCI-60 one-dose screen, 48 h (100 = growth as untreated, 0 = no growth, -100 = all killed)
experimental-context: 10 µM
Method: Growth inhibition of the NCI-H23 human Non-Small Cell Lung tumor cell line is measured as a screen for anti-cancer activity. Cells are grown in 96 well plates and exposed to the test compound for 48 hours. Compounds are tested at a single concentration, which is 10^-5 M for most compounds. The reported endpoint is percent growth (GI% or GIPRCNT), where numbers from 0 - 100% represent growth inhibition, and numbers from -100% - 0 represent cell death. […]
This is part of a sample that, as a whole, favours compounds with a hit. Of some 83,000 tested, about 20% had one in any assay.
metric: growth (%)
All answers are understood in %, so give the number only.

Q: Let me know recorded growth for O=C(CSc1nnc(-c2ccc(Cl)cc2)o1)c1ccccc1 , thanks.
Ans: 88.7

Q: Let me know recorded growth for C#CCNCCCN1C(=O)c2ccc3c4c(ccc(c24)C1=O)C(=O)N(CCCNCC#C)C3=O , thanks.
Ans: -45

Q: Let me know recorded growth for Cc1nnc2c3nnc(-c4ccc(Cl)cc4)n3c3ccccc3n12 , thanks.
Ans: 103

Q: Let me know recorded growth for Cc1ccc(Cl)cc1Nc1nc(C(F)(F)F)ccc1C(=O)N/N=C/c1c(Cl)cccc1Cl , thanks.
Ans: 6.65

Q: Let me know recorded growth for CCOC(=O)Cn1nnc(-c2ccc(OCc3ccccc3F)cc2)n1 , thanks.
Ans: 89

Q: Let me know recorded growth for N/C(=N\O)c1cn(C2OC(CO)C(O)C2O)c2ncnc(N)c12 (centres undefined) , thanks.
Ans: -1.68

Q: Let me know recorded growth for Cc1ccc(C)c2c1sc1nc3n[nH]c(N)c3c(=N)n12 , thanks.
Ans: 107

Q: Let me know recorded growth for CCOc1cc(Br)c(C(C)NC(=O)c2cccc(OC)c2)cc1OCC (centres undefined) , thanks.
Ans: 79.7

Q: Let me know recorded growth for Nc1ncncc1-c1ccc(F)cc1 , thanks.
Ans: 108

Q: Let me know recorded growth for CCN(CCCNC(=O)Cc1cc(=O)oc2cc(N(C)C)ccc12)CCNc1ccnc2cc(Cl)ccc12 , thanks.
Ans: 94.9

Q: Let me know recorded growth for CCCCCCCCCCCCCCCCCBr , thanks.
Ans: 106

Q: Let me know recorded growth for COc1cccc(C(=O)NNc2nc(N3CCOCC3)nc(N3CCN(C(c4ccccc4)c4ccccc4)CC3)n2)c1 , thanks.
Ans: 84.2

Q: Let me know recorded growth for CCCCCCN=C(N)CCCCCCCCCCC(N)=NCCCCCC , thanks.
Ans: 27.8

Q: Let me know recorded growth for COc1cc2c3c(cccc3c1)C(=O)N(CCN1CCCC1)C2=O , thanks.
Ans: 32.5

Q: Let me know recorded growth for C=CCc1cc(Nc2c3ccc(Cl)cc3nc3ccc(OC)cc23)cc(CN(CC)CC)c1O , thanks.
Ans: -0.558

Q: Let me know recorded growth for COc1cc(Nc2ccnc(N3CCN(c4ccnc5cc(Cl)ccc45)CC3)n2)cc(OC)c1 , thanks.
Ans: 9.65

Q: Let me know recorded growth for O=C(N/N=C\c1cc(Cl)ccc1O)c1ccncc1 , thanks.
Ans: 46

Q: Let me know recorded growth for COc1ccc2oc(=O)cc(C(c3ccc[nH]3)c3ccc[nH]3)c2c1 , thanks.
Ans: 26

Q: Let me know recorded growth for CCOC(=O)[C@@H]1[C@H](c2ccccc2)[C@H]([N+](=O)[O-])[C@H](c2cn(-c3ccccc3)nc2C)N1Cc1ccccc1 , thanks.
Ans: 88.6

Q: Let me know recorded growth for CC(=O)N(O)c1ccc(/C=C/c2ccccc2)cc1 , thanks.
Ans: 31

Q: Let me know recorded growth for COc1cc(/C=C/C(=O)c2cc(-c3ccccc3)ccc2O)cc(OC)c1OC , thanks.
Ans: 66.3

Q: Let me know recorded growth for C=C1C(=O)O[C@H]2[C@H]1CC/C(COC(=O)OCCCCCOC(=O)OC/C1=C/CC[C@@]3(C)O[C@H]3[C@H]3OC(=O)C(=C)[C@@H]3CC1)=C\CC[C@@]1(C)O[C@@H]21 , thanks.
Ans: -37.5

Q: Let me know recorded growth for COc1cc(C2C(C#N)=C(c3c[nH]c4ccccc34)Nc3nc(N)[nH]c(=O)c32)cc(OC)c1OC (centres undefined) , thanks.
Ans: 80.7

Q: Let me know recorded growth for COc1ccc(-c2nc(-c3nc4ccc(C)cc4[nH]3)c3ccccn23)cc1 , thanks.
Ans: 69.3

Q: Let me know recorded growth for O=NN(CCCl)C(=O)NCc1ccc(-c2ccc(CNC(=O)N(CCCl)N=O)cc2)cc1 , thanks.
Ans: 103

Q: Let me know recorded growth for O=CNc1c(Cl)cc2c(c1Cl)Cc1cc([N+](=O)[O-])ccc1-2 , thanks.
Ans: 58.3

Q: Let me know recorded growth for COc1ccccc1Cn1cc2c(c1-c1ccccc1)CCc1cnoc1-2 , thanks.
Ans: 36.9

Q: Let me know recorded growth for C#CCn1c(-c2cccc(OCCCCl)c2)nc2c1c(=O)n(C)c(=O)n2C , thanks.
Ans: 79.5

Q: Let me know recorded growth for O=C1/C(=C/c2cccs2)CCC/C1=C\c1cccs1 , thanks.
Ans: 81.5

Q: Let me know recorded growth for COc1cc(C2C=C(c3ccc(Cl)cc3)N=C3SC(C)=CN32)cc(OC)c1OC (centres undefined) , thanks.
Ans: 93.8

Q: Let me know recorded growth for CCOC(=O)[C@@H](Cc1ccccc1)NC(=O)c1[nH]c2ccc(Cl)cc2c(=O)c1C , thanks.
Ans: 99.7

Q: Let me know recorded growth for COc1ccc(-c2nc(-c3nc4ccc(OC)cc4[nH]3)c3ccccn23)cc1 , thanks.
Ans: 90.5

Q: Let me know recorded growth for COc1ccc(-c2csc(NC(=O)CO[N+](=O)[O-])n2)cc1 , thanks.
Ans: 93.4

Q: Let me know recorded growth for CCNC(=S)NN , thanks.
Ans: 93.1

* * *

Tested on: RXF 393 renal
assay-notes: NCI-60 one-dose screen, 48 h
experimental-context: 10 µM
Experimental: Cells are grown in 96 well plates and exposed to the test compound for 48 hours. Compounds are tested at a single concentration, which is 10^-5 M for most compounds. The reported endpoint is percent growth (GI% or GIPRCNT), where numbers from 0 - 100% represent growth inhibition, and numbers from -100% - 0 represent cell death. For example, a value of 40 represents 60% growth inhibition. A value of 0 means no net growth occurred over the course of the experiment. […]
This is part of a sample that, as a whole, favours compounds with a hit. Of some 83,000 tested, about 20% had one in any assay. Active and inactive are the calls of the source. How the source made its calls: active means growth percent below 10; inactive means the rest.
Select the correct class. Options are TRUE (active), FALSE (inactive) and nothing else.

Q: Hi, do you know how CCCCCCN=C(N)CCCCCCCCCCC(N)=NCCCCCC came out in this test?
Ans: FALSE

Q: Hi, do you know how COC(=O)c1cnc2c(c1)Oc1ccc(Cl)cc1-c1cc(C)nn1-2 came out in this test?
Ans: FALSE

Q: Hi, do you know how COc1ccc(-c2cc(/C=C3\C(=O)Nc4cc(Cl)ccc43)[nH]n2)cc1 came out in this test?
Ans: TRUE

Q: Hi, do you know how COc1cc(C2C(C#N)=C(c3c[nH]c4ccccc34)Nc3nc(N)[nH]c(=O)c32)cc(OC)c1OC (configuration not stated) came out in this test?
Ans: FALSE

Q: Hi, do you know how COc1cc(Cl)cc(-c2nn(-c3cccc(NC(=O)Nc4cccc(C(F)(F)F)c4)c3)cc2-c2ccncc2)c1 came out in this test?
Ans: FALSE

Q: Hi, do you know how CN(C1c2ccccc2Oc2ccccc21)S(=O)(=O)c1cc(Cl)ccc1Cl came out in this test?
Ans: FALSE

Q: Hi, do you know how Cn1cnc([N+](=O)[O-])c1/C=C1\Oc2ccc(Cl)cc2C1=O came out in this test?
Ans: FALSE
